Tested on: Saccharomyces cerevisiae;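 further: PSI is a weighted mean of sequencing reads over stability bins, variants kept only with over 10 reads, mCherry proximal and sfGFP distal, peptide attached via GGGS linker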
Test: protein stability index of tFT-peptide fusion (C-terminal peptide) (PSI (0-1 scale)); higher = more stable (slower turnover)
Settings: genetic background: cdc53-1; temperature: 37 C
Kindly supply the reported protein stability index values for the records listed here.

Known protein stability index results, listed for orientation:
>  <seq>
CLVSLPILLFFR

>  <result>
0.0381

$$$$
>  <seq>
SHPFIRSLVFLA

>  <result>
0.673

$$$$
>  <seq>
GCRLRHRLVRIV

>  <result>
0.646

$$$$
>  <seq>
LLVVFSCFTFMF

>  <result>
0.399

$$$$
>  <seq>
RDRHFKIQTCIM

>  <result>
0.721

$$$$

List the reported protein stability index of each sequence below.
1. FFFLVRLCRLCV
2. WACAWRGMVKVG
3. RPNTFRTRAKAL

(A)
0.558
0.245
0.712
